target: Recombinant human his-tagged IGF R extracellular domain protein (human) (UniProt P08069); experiment: SPR, Ab captured via anti-huIgG Fc, pH 7.4
QUANTITY: pKd
Hey, just a heads up that pKd is the negative log base 10 of the concentration in molar.

Guide cases for pKd, answers given:
>  <BINDER>
VRDN-02046 (antibody, V domains shown) VH: QVQLQESGPGLVKPSETLSLTCTVSGYSITGGYLWNWIRQPPGKGLEWIGYISYDGTNNYKPSLKDRVTISRDTSKNQFSLKLSSVTAADTAVYYCARYGRVFFDYWGQGTLVTVSS VL: DIVMTQSPLSLPVTPGEPASISCRSSQSIVHSNGNTYLQWYLQKPGQSPQLLIYKVHNRLYGVPDRFSGSGSGTDFTLKISRVEAEDVGVYYCFQGSHVPWTFGQGTKVEIK

>  <pKd>
9.24

$$$$
>  <BINDER>
VRDN-02032 (antibody, V domains shown) VH: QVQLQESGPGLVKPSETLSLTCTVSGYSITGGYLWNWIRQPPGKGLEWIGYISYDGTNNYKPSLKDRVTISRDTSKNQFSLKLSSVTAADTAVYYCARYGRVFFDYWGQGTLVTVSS VL: DIVMTQSPLSLPVTPGEPASISCRSSHSIVHSNGNTYLQWYLQKPGQSPQLLIYKVSNRLYGVPDRFSGSGSGTDFTLKISRVEAEDVGVYYCFQGSHVPWTFGQGTKVEIK

>  <pKd>
9.11

$$$$
>  <BINDER>
VRDN-02012 (antibody, V domains shown) VH: QVQLQESGPGLVKPSETLSLTCTVSGYSITGGYLWNWIRQPPGKGLEWIGHISYDGTNNYKPSLKDRVTISRDTSKNQFSLKLSSVTAADTAVYYCARYGRVFFDYWGQGTLVTVSS VL: DIVMTQSPLSLPVTPGEPASISCRSSQSIVHSNGNTYLQWYLQKPGQSPQLLIYKVSNRLYGVPDRFSGSGSGTDFTLKISRVEAEDVGVYYCFQGSHVPWTFGQGTKVEIK

>  <pKd>
9.23

$$$$
>  <BINDER>
VRDN-02043 (antibody, V domains shown) VH: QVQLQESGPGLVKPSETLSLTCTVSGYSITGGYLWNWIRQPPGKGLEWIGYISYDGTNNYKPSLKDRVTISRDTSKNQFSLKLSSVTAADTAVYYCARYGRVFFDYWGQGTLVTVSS VL: DIVMTQSPLSLPVTPGEPASISCRSSQSIVHSNGNTYLHWYLQKPGQSPQLLIYKVSNRLYGVPDRFSGSGSGTDFTLKISRVEAEDVGVYYCFQGSHVPWTFGQGTKVEIK

>  <pKd>
9.13

$$$$
>  <BINDER>
VRDN-02035 (antibody, V domains shown) VH: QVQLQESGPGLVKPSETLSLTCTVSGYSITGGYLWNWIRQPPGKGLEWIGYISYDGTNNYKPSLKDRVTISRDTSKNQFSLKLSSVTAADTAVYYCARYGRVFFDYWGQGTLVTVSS VL: DIVMTQSPLSLPVTPGEPASISCRSSQSIHHSNGNTYLQWYLQKPGQSPQLLIYKVSNRLYGVPDRFSGSGSGTDFTLKISRVEAEDVGVYYCFQGSHVPWTFGQGTKVEIK

>  <pKd>
9.19

$$$$

// switching to the query binder
Indicate its recorded pKd; the binder in question is VRDN-02058 (antibody, V domains shown) VH: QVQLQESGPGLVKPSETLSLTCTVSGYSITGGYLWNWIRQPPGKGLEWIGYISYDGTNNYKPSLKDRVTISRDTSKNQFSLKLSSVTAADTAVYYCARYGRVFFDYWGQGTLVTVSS VL: DIVMTQSPLSLPVTPGEPASISCRSSQSIVHSNGNTYLQWYLQKPGQSPQLLIYKVSNRLYGVPDRFSGSGSGTDFTLKISRVEAEDVGVYYCFQGSHVPWHFGQGTKVEIK
9.08
